# Tested on: QYC cells
# TEST SUMMARY: Inhibition of huSM5-1 induced apoptosis by caspase inhibitors
# Assay type: cell-based, human
# CONDITIONS: QYC cells incubated with caspase inhibitor at 50 mol/l for 2 h, then 50 ng/ml huSM5-1 antibody
Residues, ends and D or L forms follow the SMILES beside them. *: point of attachment. Cbz = O=C(OCc1ccccc1)*; CH2F = FC*
# maps each entry to its inhibitory rate of huSM5-1 induced apoptosis
Number only, in %; omit the unit.

Before answering, review these 3 worked examples.
### Prompt Would you mind telling me what inhibitory rate of huSM5-1 induced apoptosis value was observed for CC[C@H](C)[C@H](NC(=O)[C@H](CCC(=O)OC)NC(=O)[C@@H](NC(=O)OCc1ccccc1)C(C)C)C(=O)N[C@@H](CC(=O)OC)C(=O)CF [caspase-6 inhibitor, Z-VEID-FMK] (Cbz-VE(OMe)ID(OMe)-CH2F) ?
### Response 28

### Prompt Give the measured inhibitory rate of huSM5-1 induced apoptosis of COC(=O)C[C@H](NC(=O)[C@H](C)NC(=O)[C@@H](NC(=O)[C@H](CC(=O)OC)NC(=O)[C@@H](NC(=O)OCc1ccccc1)C(C)C)C(C)C)C(=O)CF [caspase-2 inhibitor, Z-VDVAD-FMK] (Cbz-VD(OMe)VAD(OMe)-CH2F) .
### Response 1

### Prompt Item CC[C@H](C)[C@H](NC(=O)OCc1ccccc1)C(=O)N[C@@H](CCC(=O)OC)C(=O)N[C@H](C(=O)N[C@@H](CC(=O)OC)C(=O)CF)[C@@H](C)O [caspase-8 inhibitor, Z-IETD-FMK] (Cbz-IE(OMe)TD(OMe)-CH2F) has what recorded inhibitory rate of huSM5-1 induced apoptosis?
### Response 17

Moving on to another molecule below.
### Prompt Name the reported inhibitory rate of huSM5-1 induced apoptosis value associated with the molecule `COC(=O)CC[C@H](NC(=O)[C@H](CC(=O)OC)NC(=O)OCc1ccccc1)C(=O)N[C@H](C(=O)N[C@@H](CC(=O)OC)C(=O)CF)C(C)C`
### Response 1

---

# inhibitory rate of huSM5-1 induced apoptosis listing for each entry below
# Tested on: QYC cells
# TEST SUMMARY: Inhibition of huSM5-1 induced apoptosis by caspase inhibitors
# Assay type: cell-based, human
# CONDITIONS: QYC cells incubated with caspase inhibitor at 50 mol/l for 2 h, then 50 ng/ml huSM5-1 antibody
Residues, ends and D or L forms follow the SMILES beside them. *: point of attachment. Cbz = O=C(OCc1ccccc1)*; CH2F = FC*
Dear colleague, please return just the value in %, with no unit written.

Please review the following examples before continuing.
### Prompt Give the measured inhibitory rate of huSM5-1 induced apoptosis of COC(=O)CC[C@H](NC(=O)[C@H](CC(C)C)NC(=O)OCc1ccccc1)C(=O)N[C@@H](Cc1cnc[nH]1)C(=O)N[C@@H](CC(=O)OC)C(=O)CF [caspase-9 inhibitor, Z-LEHD-FMK] (Cbz-LE(OMe)HD(OMe)-CH2F) .
### Response 5

### Prompt What value of inhibitory rate of huSM5-1 induced apoptosis has been recorded for this entry: COC(=O)C[C@H](NC(=O)[C@H](C)NC(=O)[C@@H](NC(=O)OCc1ccccc1)C(C)C)C(=O)CF [pan-caspase inhibitor, Z-VAD-FMK] (Cbz-Val-Ala-Asp(OMe)-CH2F)
### Response 72

### Prompt Given COC(=O)CC[C@H](NC(=O)[C@H](CCC(=O)OC)NC(=O)[C@H](CC(C)C)NC(=O)OCc1ccccc1)C(=O)N[C@@H](CC(=O)OC)C(=O)CF [caspase-13 inhibitor, Z-LEED-FMK] (Cbz-LE(OMe)E(OMe)D(OMe)-CH2F) , state its recorded inhibitory rate of huSM5-1 induced apoptosis.
### Response 15

### Prompt What value of inhibitory rate of huSM5-1 induced apoptosis has been recorded for this entry: `COC(=O)C[C@H](NC(=O)[C@H](C)NC(=O)[C@@H](NC(=O)[C@H](Cc1ccc(O)cc1)NC(=O)OCc1ccccc1)C(C)C)C(=O)CF`
### Response 14

### Prompt Look at this compound and give its reported inhibitory rate of huSM5-1 induced apoptosis. COC(=O)CCC(NC(=O)C(NC(=O)C(C)NC(=O)OCc1ccccc1)C(C)C)C(=O)NC(CC(=O)OC)C(=O)CF (stereo not drawn) [caspase-10 inhibitor, Z-AVED-FMK] (Cbz-AVE(OMe)D(OMe)-CH2F; configuration not given here)
### Response 52

Next:
### Prompt Using the record for COC(=O)CC[C@H](NC(=O)[C@H](Cc1c[nH]c2ccccc12)NC(=O)OCc1ccccc1)C(=O)N[C@@H](Cc1cnc[nH]1)C(=O)N[C@@H](CC(=O)OC)C(=O)CF [caspase-1 inhibitor, Z-WEHD-FMK] (Cbz-WE(OMe)HD(OMe)-CH2F) , report its inhibitory rate of huSM5-1 induced apoptosis.
### Response 27
